# method_notes: Solubility as a function of pH value and time as compared to crystalline active substance
# Format: physicochemical
# measurement_context: pH = 1.5; 10 minutes; solids dispersion is test 3
readout_label: solubility at 10 min (µg/mL)

INSERT INTO results (molecule, measured_value) VALUES
  ('O=c1[nH]c(=O)c2c[nH]nc2[nH]1 [oxypurinol sodium monohydrate, Oxypurinol sodium monohydrate]', 62);

###

# method_notes: Dissolution test (USP XXI dissolution tester) of oxypurinol sodium monohydrate and formulations in 0.1 N hydrochloric acid, spectrophotometric at 245 nm
# Type: physicochemical
# measurement_context: 0.1 n hcl, after 5 minutes
readout_label: solubility at 5 min (µg/mL)

INSERT INTO results (compound, measured_value) VALUES
  ('O=c1[nH]c(=O)c2c[nH]nc2[nH]1 [oxypurinol sodium monohydrate, Oxypurinol sodium monohydrate]', 43);

###

# method_notes: Solubility and pH of aqueous solutions (background statements)
# Type: physicochemical
# measurement_context: water; 25° C.; read-out: concentration permitted in aqueous solutions
readout_label: solubility

INSERT INTO measurements (molecule, readout_label, measured_value) VALUES
  ('O=c1[nH]c(=O)c2c[nH]nc2[nH]1 [oxypurinol sodium monohydrate, Oxypurinol sodium monohydrate]', 'solubility', '~15 mg/mL');

###

# method_notes: Solubility as a function of pH value and time as compared to crystalline active substance
# Type: physicochemical
# measurement_context: pH = 6.5; 10 minutes; solids dispersion is test 3
# Experimental: The forms according to the invention were tested for solubility and rate of dissolution, respectively, in comparison to crystalline oxypurinol sodium monohydrate finely powdered in a mortar. Solubility according to example 1 (test 3) as a function of pH value and as compared to crystalline active substance (values in mg/liter)
readout_label: solubility at 10 min

INSERT INTO assay_data (compound, measured_value) VALUES
  ('O=c1[nH]c(=O)c2c[nH]nc2[nH]1 [oxypurinol sodium monohydrate, Oxypurinol sodium monohydrate]', '261 µg/mL');

###

# method_notes: Solubility as a function of pH value and time as compared to crystalline active substance
# Type: physicochemical
# measurement_context: pH = 3.0; 60 minutes; solids dispersion is test 3
readout_label: solubility at 1 h (µg/mL)

INSERT INTO measurements (molecule, measurement_unit, measured_value) VALUES
  ('O=c1[nH]c(=O)c2c[nH]nc2[nH]1 [oxypurinol sodium monohydrate, Oxypurinol sodium monohydrate]', 'µg/mL', 222);

###

# method_notes: Dissolution test (USP XXI dissolution tester) of oxypurinol sodium monohydrate and formulations in 0.1 N hydrochloric acid, spectrophotometric at 245 nm
# Format: physicochemical
# measurement_context: 0.1 n hcl, after another 24 hours; read-out: solubility as a constant for the substance
readout_label: solubility at 48 h

INSERT INTO results (molecule, readout_label, measured_value) VALUES
  ('O=c1[nH]c(=O)c2c[nH]nc2[nH]1 [oxypurinol sodium monohydrate, Oxypurinol sodium monohydrate]', 'solubility at 48 h', '~260 µg/mL');

###

# method_notes: Dissolution test (USP XXI dissolution tester) of oxypurinol sodium monohydrate and formulations in 0.1 N hydrochloric acid, spectrophotometric at 245 nm
# Type: physicochemical
# measurement_context: 0.1 n hcl, after 24 hours; read-out: maximum solubility
readout_label: solubility at 24 h

INSERT INTO results (compound, measured_value) VALUES
  ('O=c1[nH]c(=O)c2c[nH]nc2[nH]1 [oxypurinol sodium monohydrate, Oxypurinol sodium monohydrate]', '~280 µg/mL');

###

# method_notes: Dissolution test (USP XXI dissolution tester) of oxypurinol sodium monohydrate and formulations in 0.1 N hydrochloric acid, spectrophotometric at 245 nm
# Assay type: physicochemical
# measurement_context: 0.1 n hcl, after 60 minutes
readout_label: solubility at 1 h (µg/mL)

INSERT INTO results (compound, measurement_unit, measured_value) VALUES
  ('O=c1[nH]c(=O)c2c[nH]nc2[nH]1 [oxypurinol sodium monohydrate, Oxypurinol sodium monohydrate]', 'µg/mL', 142);

###

# method_notes: Solubility as a function of pH value and time as compared to crystalline active substance
# Assay type: physicochemical
# measurement_context: pH = 3.0; 10 minutes; solids dispersion is test 3
readout_label: solubility at 10 min

INSERT INTO assay_data (compound, measured_value) VALUES
  ('O=c1[nH]c(=O)c2c[nH]nc2[nH]1 [oxypurinol sodium monohydrate, Oxypurinol sodium monohydrate]', '110 µg/mL');

###

# method_notes: Solubility as a function of pH value and time as compared to crystalline active substance
# Type: physicochemical
# measurement_context: pH = 6.5; 60 minutes; solids dispersion is test 3
readout_label: solubility at 1 h (µg/mL)

INSERT INTO results (molecule, readout_label, measured_value) VALUES
  ('O=c1[nH]c(=O)c2c[nH]nc2[nH]1 [oxypurinol sodium monohydrate, Oxypurinol sodium monohydrate]', 'solubility at 1 h', 290);
